- SYSTEM: T1, PSMA Fab
- T1 construct: also called Anti-PSMA Fab; 006 PSMA Fab
- PROTOCOL DETAILS: phage ELISA, biotinylated PSMA Fab on neutravidin plate pre-incubated with PSMA antigen as competitor, anti-M13-HRP
Where no end group is shown, it is not given here.
Classification field: True = Phage binding ELISA signal, Anti-PSMA Fab with PSMA antigen at or over 0.08; False = Phage binding ELISA signal, Anti-PSMA Fab with PSMA antigen under 0.08.

[[record]]
binder = "FGISCTPSWMCEGF [Phage-2398]"
class = "True"

[[record]]
binder = "VFHLCMPPWMCSQD [Phage-2390]"
class = "True"

[[record]]
binder = "IEKWCIPQWMCGNP (cysteine pairing not given here; also: fused to phage pIII (clonal phage display)) [Phage-2403]"
class = "False"

[[record]]
binder = "HTTWCTPAWMCQGF [Phage-2404]"
class = "True"

